testSystem: reconstituted ATase (ATN6-ATC3 complex) (Escherichia coli, UniProt P30870)
Sequence (P30870 1-608): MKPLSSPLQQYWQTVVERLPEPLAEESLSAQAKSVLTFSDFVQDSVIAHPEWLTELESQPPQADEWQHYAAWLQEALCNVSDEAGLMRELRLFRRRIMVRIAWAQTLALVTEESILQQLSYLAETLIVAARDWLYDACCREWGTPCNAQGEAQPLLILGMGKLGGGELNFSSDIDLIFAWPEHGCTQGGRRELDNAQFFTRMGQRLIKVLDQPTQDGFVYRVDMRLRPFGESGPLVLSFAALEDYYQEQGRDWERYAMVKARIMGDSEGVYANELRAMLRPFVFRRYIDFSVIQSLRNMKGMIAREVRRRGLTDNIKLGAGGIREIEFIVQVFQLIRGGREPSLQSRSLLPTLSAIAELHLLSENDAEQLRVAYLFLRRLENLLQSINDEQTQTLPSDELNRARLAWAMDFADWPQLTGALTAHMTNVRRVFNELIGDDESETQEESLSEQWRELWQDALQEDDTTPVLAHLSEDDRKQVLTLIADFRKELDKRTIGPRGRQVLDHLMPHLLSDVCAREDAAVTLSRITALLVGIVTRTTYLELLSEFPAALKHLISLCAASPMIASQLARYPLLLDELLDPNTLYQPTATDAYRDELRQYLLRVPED
Sequence (P30870 609-946 partner): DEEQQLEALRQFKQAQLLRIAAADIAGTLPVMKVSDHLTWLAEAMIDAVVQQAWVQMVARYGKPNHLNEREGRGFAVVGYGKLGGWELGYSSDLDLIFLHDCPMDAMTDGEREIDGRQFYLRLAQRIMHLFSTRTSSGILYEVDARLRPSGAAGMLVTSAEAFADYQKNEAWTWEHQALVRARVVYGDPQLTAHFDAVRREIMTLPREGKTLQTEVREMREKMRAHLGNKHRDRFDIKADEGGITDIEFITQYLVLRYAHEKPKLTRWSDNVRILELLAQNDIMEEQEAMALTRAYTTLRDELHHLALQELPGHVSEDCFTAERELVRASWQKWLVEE
experimentalProtocol: initial rate of GS adenylylation, […] incorporation from [alpha-32P]ATP
pEC50: −log10 of the molar value.
observedProperty: pEC50

# compound "NC(=O)CC[C@H](N)C(=O)O" ; its pEC50 = ~2.15
